Values were extracted from patent US20260184712A1.

- measured.on: human ENT1 (Homo sapiens)
- Construct: JAR cells expressing ENT1 were purchased from ATCC; host or cells: JAR cells
- method.description: ENT1 binding assay (competition with Sahenta-DY647 on JAR cells)
- condition.description: competition with SAHENTA-DY647 binding; IC50 categorized; read-out: Binding Assay IC50
pIC50: −log10 of the molar value.
recorded.endpoint: pIC50

Query: Tell me its pIC50 on human ENT1 (Homo sapiens): CC(C)Nc1nc2c(N3CCc4ccc(C#N)cc4C3)ncnc2n1[C@@H]1O[C@H](C)[C@@H](O)[C@H]1O [Compound 154]
Response: 7.70 to 9.00

Query: Tell me its pIC50 on human ENT1 (Homo sapiens): C[C@H]1O[C@@H](n2c(N[C@H]3C[C@@](C)(O)C3)nc3c(OCc4ccc(OC(F)F)cc4)ncnc32)[C@H](O)[C@@H]1O [Compound 123]
Response: 7.70 to 9.00

Query: Tell me its pIC50 on human ENT1 (Homo sapiens): O=[N+]([O-])c1ccc(COc2ncnc3c2ncn3[C@@H]2O[C@H](CCO)[C@@H](O)[C@H]2O)cc1 [Compound 229]
Response: < 6.30

Query: Tell me its pIC50 on human ENT1 (Homo sapiens): C[C@H]1O[C@@H](n2c(Nc3cn[nH]c3)nc3c(OCc4ccc([N+](=O)[O-])cc4)ncnc32)[C@H](O)[C@@H]1O [Compound 35]
Response: > 9.00

Query: Tell me its pIC50 on human ENT1 (Homo sapiens): C[C@H]1O[C@@H](n2c(NC3CCCC3)nc3c(OCc4ccc([N+](=O)[O-])cc4)ncnc32)[C@H](O)[C@@H]1O [Compound 6]
Response: > 9.00

Query: Tell me its pIC50 on human ENT1 (Homo sapiens): C[C@H]1O[C@@H](n2cnc3c(OCc4cc(F)c(F)c(F)c4)ncnc32)[C@H](O)[C@@H]1O [Compound 200]
Response: 6.30 to 7.70

Query: Tell me its pIC50 on human ENT1 (Homo sapiens): C[C@H]1O[C@@H](n2cnc3c(OCCc4ccc(OCF)nc4)ncnc32)[C@H](O)[C@@H]1O [Compound 336]
Response: < 6.30

----------
- measured.on: human ENT1 (Homo sapiens)
- Construct: JAR cells expressing ENT1 were purchased from ATCC; host or cells: JAR cells
- Sequence (Q99808 1-456): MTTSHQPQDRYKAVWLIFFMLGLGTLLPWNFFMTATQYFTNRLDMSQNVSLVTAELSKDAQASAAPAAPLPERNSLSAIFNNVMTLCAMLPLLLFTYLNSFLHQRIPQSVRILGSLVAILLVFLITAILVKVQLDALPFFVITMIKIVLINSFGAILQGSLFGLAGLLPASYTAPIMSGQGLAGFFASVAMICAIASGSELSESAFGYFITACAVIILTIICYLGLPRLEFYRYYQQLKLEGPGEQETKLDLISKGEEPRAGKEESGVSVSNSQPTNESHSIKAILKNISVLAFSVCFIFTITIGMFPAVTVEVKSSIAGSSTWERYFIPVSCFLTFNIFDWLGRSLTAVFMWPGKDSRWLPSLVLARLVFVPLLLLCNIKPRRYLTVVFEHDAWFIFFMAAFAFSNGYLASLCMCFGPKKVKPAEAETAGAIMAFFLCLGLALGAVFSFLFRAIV
- method.description: ENT1 binding assay (competition with Sahenta-DY647 on JAR cells)
- condition.description: competition with SAHENTA-DY647 binding; IC50 categorized; read-out: Binding Assay IC50
- Description: Compounds of the present disclosure were assayed to show ability to bind to human ENT1. The assay is a competition between a compound of interest and Sahenta-DY647, an ENT1 inhibitor that emits fluorescence (Ex=630 nm, Em=670 nm). By measuring the fluorescence at the end of the assay, one can assess the binding potency of the compounds tested. […] The inhibitory effect of the test compound was expressed as a percentage of the inhibition of SAHENTA-DY647 binding.
pIC50: −log10 of the molar value.
Can you tell me pIC50 for the items I'm about to list?

Query: Give me measured pIC50, please, for this compound: C[C@H]1O[C@@H](n2cnc3c(OCc4ccc([N+](=O)[O-])cn4)ncnc32)[C@H](O)[C@@H]1O [Compound 281]
Response: < 6.30

Query: Give me measured pIC50, please, for this compound: C[C@H]1O[C@@H](n2c(N[C@H]3CC[C@H](O)CC3)nc3c(OCc4ccc([N+](=O)[O-])cc4)ncnc32)[C@H](O)[C@@H]1O [Compound 57]
Response: > 9.00

Query: Give me measured pIC50, please, for this compound: C[C@H]1O[C@@H](n2cnc3c(OCCc4ccc(OC(F)(F)F)cc4)ncnc32)[C@H](O)[C@@H]1O [Compound 241]
Response: < 6.30

Query: Give me measured pIC50, please, for this compound: C[C@H]1O[C@@H](n2cnc3c(SCc4nc5ccccc5o4)ncnc32)[C@H](O)[C@@H]1O [Compound 392]
Response: < 6.30

Query: Give me measured pIC50, please, for this compound: C[C@H]1O[C@@H](n2c(-c3cnn(C)c3)nc3c(OCc4ccc([N+](=O)[O-])cc4)ncnc32)[C@H](O)[C@@H]1O [Compound 13]
Response: 6.30 to 7.70

Query: Give me measured pIC50, please, for this compound: C[C@H]1O[C@@H](n2c(NCC3COC3)nc3c(OCc4ccc(OC(F)F)cc4)ncnc32)[C@H](O)[C@@H]1O [Compound 424]
Response: < 6.30

Query: Give me measured pIC50, please, for this compound: C[C@H]1O[C@@H](n2c(NC3CCC(O)CC3)nc3c(OCc4ccc(C#N)cc4)ncnc32)[C@H](O)[C@@H]1O (stereo partly drawn) [Compound 52]
Response: > 9.00

Query: Give me measured pIC50, please, for this compound: C[C@H]1O[C@@H](n2cnc3c(OCCc4ccc(=O)n(C)c4)ncnc32)[C@H](O)[C@@H]1O [Compound 401]
Response: < 6.30

Query: Give me measured pIC50, please, for this compound: C[C@H]1O[C@@H](n2cnc3c(-n4cc(-c5ccc([N+](=O)[O-])cc5)nn4)ncnc32)[C@H](O)[C@@H]1O [Compound 416]
Response: < 6.30

Query: Give me measured pIC50, please, for this compound: C[C@H]1O[C@@H](n2c(N[C@H]3CC[C@](C)(O)CC3)nc3c(OCc4ccc(C#N)cc4)ncnc32)[C@H](O)[C@@H]1O [Compound 132]
Response: 7.70 to 9.00

Query: Give me measured pIC50, please, for this compound: C[C@H]1O[C@@H](n2c(NC3CCOCC3)nc3c(OCc4ccc(C#N)cc4)ncnc32)[C@H](O)[C@@H]1O [Compound 73]
Response: > 9.00

Query: Give me measured pIC50, please, for this compound: Cc1ncc(CNc2nc3c(OCc4ccc(C#N)cc4)ncnc3n2[C@@H]2O[C@H](C)[C@@H](O)[C@H]2O)cn1 [Compound 71]
Response: 7.70 to 9.00

Query: Give me measured pIC50, please, for this compound: C[C@H]1O[C@@H](n2cnc3c(C(=O)NCc4ccc(C#N)cc4)ncnc32)[C@H](O)[C@@H]1O [Compound 361]
Response: < 6.30

Query: Give me measured pIC50, please, for this compound: Cc1c(N[C@@H]2O[C@H](C)[C@@H](O)[C@H]2O)ncnc1OCCc1ccc([N+](=O)[O-])cc1 [Compound 345]
Response: < 6.30

Query: Give me measured pIC50, please, for this compound: C[C@H]1O[C@@H](n2c(N[C@H]3CC[C@](C)(O)CC3)nc3c(N4CCc5ccc([N+](=O)[O-])cc5C4)ncnc32)[C@H](O)[C@@H]1O [Compound 144]
Response: 7.70 to 9.00

Query: Give me measured pIC50, please, for this compound: C[C@H]1O[C@@H](n2cnc3c(NCc4ccccc4C#N)ncnc32)[C@H](O)[C@@H]1O [Compound 357]
Response: < 6.30

Query: Give me measured pIC50, please, for this compound: C[C@H]1O[C@@H](n2c(NC3CCC(F)(F)CC3)nc3c(OCc4ccc([N+](=O)[O-])cc4)ncnc32)[C@H](O)[C@@H]1O [Compound 10]
Response: 7.70 to 9.00

Query: Give me measured pIC50, please, for this compound: Cc1cc(COc2ncnc3c2nc(NC2CCOCC2)n3[C@@H]2O[C@H](C)[C@@H](O)[C@H]2O)ccc1[N+](=O)[O-] [Compound 103]
Response: > 9.00

Query: Give me measured pIC50, please, for this compound: C[C@H]1O[C@@H](n2cnc3c(OCc4cccc(C(F)(F)F)c4)ncnc32)[C@H](O)[C@@H]1O [Compound 274]
Response: < 6.30

Query: Give me measured pIC50, please, for this compound: O=[N+]([O-])c1ccc(COc2ncnc3c2nnn3[C@@H]2C[C@H](OCCO)[C@@H](O)[C@H]2O)cc1 [Compound 309]
Response: < 6.30

Query: Give me measured pIC50, please, for this compound: C[C@H]1O[C@@H](n2c(OCc3ccccc3)nc3c(OCc4ccc([N+](=O)[O-])cc4)ncnc32)[C@H](O)[C@@H]1O [Compound 2]
Response: 7.70 to 9.00

Query: Give me measured pIC50, please, for this compound: C[C@H]1O[C@@H](n2c(NC3CC(F)(F)C3)nc3c(OCc4ccc([N+](=O)[O-])cc4)ncnc32)[C@H](O)[C@@H]1O [Compound 47]
Response: 7.70 to 9.00

Query: Give me measured pIC50, please, for this compound: CCNc1nc2c(OCc3ccc(C#N)cc3)ncnc2n1[C@@H]1O[C@H](C)[C@@H](O)[C@H]1O [Compound 37]
Response: 7.70 to 9.00

Query: Give me measured pIC50, please, for this compound: C[C@H]1O[C@@H](n2cnc3c(OCCc4ccc(C#N)nn4)ncnc32)[C@H](O)[C@@H]1O [Compound 188]
Response: 6.30 to 7.70

Query: Give me measured pIC50, please, for this compound: CC(C)Nc1nc2c(N3CCc4ccccc4C3)ncnc2n1[C@@H]1O[C@H](C)[C@@H](O)[C@H]1O [Compound 212]
Response: 6.30 to 7.70

Query: Give me measured pIC50, please, for this compound: C[C@H]1O[C@@H](n2cnc3c(C4CCc5ccc([N+](=O)[O-])cc5C4)ncnc32)[C@H](O)[C@@H]1O (stereo partly drawn) [Compound 227]
Response: < 6.30

Query: Give me measured pIC50, please, for this compound: C[C@H]1O[C@@H](n2cnc3c(CO[C@H]4CC[C@H](C(F)(F)F)CC4)ncnc32)[C@H](O)[C@@H]1O [Compound 371]
Response: < 6.30
